test system: ENR+CD organoids; experiment: Primary screen: ATP (CellTiter-Glo 3D, CTG) cell number/viability, 2.5-D 384-well ENR+CD organoids; settings: primary screen, dose 0.08 uM;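 note: compounds given at plating and again on day 3 over a 6-day differentiation from ENR+CV stem-cell-enriched precursors, ATP measured on day 6, plate median as control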
Classification field. Basis: Z.CTG (standard z score). Definitions: Low: < -0.07; Medium: ≥ -0.07 and < 0.3; High: ≥ 0.3

{"compound": "COc1cc(CCc2cc(NC(=O)c3ccc(N4CC(C)NC(C)C4)cc3)n[nH]2)cc(OC)c1 (stereo not drawn)", "category": "High"}
{"compound": "COC1CCN(C(=O)c2cc(Cc3n[nH]c(=O)c4ccccc34)ccc2F)CC1", "category": "Medium"}
{"compound": "C=CC(=O)N1CCC[C@@H](n2nc(-c3ccc(Oc4ccccc4)cc3)c3c(N)ncnc32)C1", "category": "Medium"}
{"compound": "CC1(C)CCC(CN2CCN(c3ccc(C(=O)NS(=O)(=O)c4ccc(NCC5CCOCC5)c([N+](=O)[O-])c4)c(Oc4cnc5[nH]ccc5c4)c3)CC2)=C(c2ccc(Cl)cc2)C1", "category": "Medium"}
{"compound": "CCc1cc(Nc2nccc(-c3c(-c4ccc(OC)c(C(=O)Nc5c(F)cccc5F)c4)nc4ccccn34)n2)c(OC)cc1N1CCC(N2CCN(S(C)(=O)=O)CC2)CC1 [GSK1904529A]", "category": "High"}
{"compound": "CN(C)CCCCC(=O)Nc1ccc(NC(=S)NC(=O)c2ccc(C(C)(C)C)cc2)cc1", "category": "Medium"}
{"compound": "CN(C)C(=O)Nc1cccc(-c2ccc(N(C)C)cc2)c1", "category": "Medium"}
{"compound": "Cc1ccc(C(=O)N(CCCN)[C@@H](c2nc3cc(Cl)ccc3c(=O)n2Cc2ccccc2)C(C)C)cc1 [Ispinesib (SB-715992)]", "category": "Low"}
{"compound": "Cc1cc(Nc2cc(CN3CCOCC3)c3nc(C)c(Cc4ccc(Cl)cc4F)n3n2)n[nH]1", "category": "Medium"}
{"compound": "COc1cc2ncnc(Nc3ccc(Cl)cc3F)c2cc1OC", "category": "Low"}
{"compound": "Cl.Cl.Cl.O[C@@H](COc1cccc2ncccc12)CN1CCN([C@@H]2c3ccccc3[C@@H]3[C@H](c4ccccc42)C3(F)F)CC1 [Zosuquidar (LY335979) 3HCl]", "category": "Medium"}
{"compound": "N#C[C@@H]1CCCN1C(=O)CNC12CC3CC(CC(O)(C3)C1)C2", "category": "High"}
{"compound": "O=C1NC(=O)/C(=C/c2ccc(-c3ccc(F)cc3O)o2)S1", "category": "High"}
{"compound": "Cc1cc(Nc2cc(N3CCN(C)CC3)nc(Sc3ccc(NC(=O)C4CC4)cc3)n2)n[nH]1", "category": "Low"}
{"compound": "CC(C)N(CC[C@H](c1ccccc1)c1cc(CO)ccc1O)C(C)C [5-hydroxymethyl Tolterodine (PNU 200577, 5-HMT, 5-HM)]", "category": "Low"}
{"compound": "O=C(/C=C/c1cccc(S(=O)(=O)Nc2ccccc2)c1)NO", "category": "Low"}
{"compound": "CC(C)c1ccc(NC(=O)Cn2cnc3c2c(=O)n(C)c(=O)n3C)cc1", "category": "Medium"}
{"compound": "CNC(=O)[C@H](Cc1c[nH]c2ccccc12)NC(=O)[C@@H](CC(=O)NO)CC(C)C", "category": "High"}
